Test system: MAPK1 (human)
Test summary: radiometric filter-binding kinase assay
Condition description: compound 10.0 µM
Reported endpoint: residual activity (%)

Illustrative cases are given below, each with its answer.
>>> reported_measurement("NCC(=O)Nc1ccc(-n2nc(C(F)(F)F)cc2-c2ccc3c(ccc4ccccc43)c2)cc1")
88
>>> reported_measurement("CNc1nc(-c2ccc3c(N)n[nH]c3c2)cc(N2C[C@@H](C(=O)NC3CCCCC3)CC[C@H]2C)n1")
109
>>> reported_measurement("O=C(Nc1ccccc1-c1cn2c(CN3CCNCC3)csc2n1)c1cnc2ccccc2n1")
97
>>> reported_measurement("O=C(NOC[C@H](O)CO)c1ccc(F)c(F)c1Nc1ccc(I)cc1Cl")
100
>>> reported_measurement("COc1cc(C(=O)N2CCOCC2)c(F)cc1Nc1ncc(C(F)(F)F)c(NC2CC2)n1")
55
>>> reported_measurement("Cc1ccc(=O)n(-c2ccccc2)c1")
97

(A) CC1=C(CO)C(=O)O[C@@H]([C@@H](C)[C@H]2CC[C@H]3[C@@H]4C[C@H]5O[C@]56[C@@H](O)C=CC(=O)[C@]6(C)C4CC[C@]23C)C1 (stereo not given in full)
(B) O=C1Nc2nc(-c3c(O)cccc3OCC3CC3)cc(C3CCCNC3)c2CO1 (stereo not given)
(C) NC(=O)Nc1ccc2c(c1)/C(=C/c1cc(-c3cccnc3)c[nH]1)C(=O)N2
Task: Returns the items ordered by residual activity, from maximum to minimum. Your reply should list the labels following the order given in the request.
Result: A, B, C
(A: 111%, B: 74%, C: 16%)

* * *

Test system: INSR (human) (UniProt P06213)
Sequence (P06213 whole entry, looked up): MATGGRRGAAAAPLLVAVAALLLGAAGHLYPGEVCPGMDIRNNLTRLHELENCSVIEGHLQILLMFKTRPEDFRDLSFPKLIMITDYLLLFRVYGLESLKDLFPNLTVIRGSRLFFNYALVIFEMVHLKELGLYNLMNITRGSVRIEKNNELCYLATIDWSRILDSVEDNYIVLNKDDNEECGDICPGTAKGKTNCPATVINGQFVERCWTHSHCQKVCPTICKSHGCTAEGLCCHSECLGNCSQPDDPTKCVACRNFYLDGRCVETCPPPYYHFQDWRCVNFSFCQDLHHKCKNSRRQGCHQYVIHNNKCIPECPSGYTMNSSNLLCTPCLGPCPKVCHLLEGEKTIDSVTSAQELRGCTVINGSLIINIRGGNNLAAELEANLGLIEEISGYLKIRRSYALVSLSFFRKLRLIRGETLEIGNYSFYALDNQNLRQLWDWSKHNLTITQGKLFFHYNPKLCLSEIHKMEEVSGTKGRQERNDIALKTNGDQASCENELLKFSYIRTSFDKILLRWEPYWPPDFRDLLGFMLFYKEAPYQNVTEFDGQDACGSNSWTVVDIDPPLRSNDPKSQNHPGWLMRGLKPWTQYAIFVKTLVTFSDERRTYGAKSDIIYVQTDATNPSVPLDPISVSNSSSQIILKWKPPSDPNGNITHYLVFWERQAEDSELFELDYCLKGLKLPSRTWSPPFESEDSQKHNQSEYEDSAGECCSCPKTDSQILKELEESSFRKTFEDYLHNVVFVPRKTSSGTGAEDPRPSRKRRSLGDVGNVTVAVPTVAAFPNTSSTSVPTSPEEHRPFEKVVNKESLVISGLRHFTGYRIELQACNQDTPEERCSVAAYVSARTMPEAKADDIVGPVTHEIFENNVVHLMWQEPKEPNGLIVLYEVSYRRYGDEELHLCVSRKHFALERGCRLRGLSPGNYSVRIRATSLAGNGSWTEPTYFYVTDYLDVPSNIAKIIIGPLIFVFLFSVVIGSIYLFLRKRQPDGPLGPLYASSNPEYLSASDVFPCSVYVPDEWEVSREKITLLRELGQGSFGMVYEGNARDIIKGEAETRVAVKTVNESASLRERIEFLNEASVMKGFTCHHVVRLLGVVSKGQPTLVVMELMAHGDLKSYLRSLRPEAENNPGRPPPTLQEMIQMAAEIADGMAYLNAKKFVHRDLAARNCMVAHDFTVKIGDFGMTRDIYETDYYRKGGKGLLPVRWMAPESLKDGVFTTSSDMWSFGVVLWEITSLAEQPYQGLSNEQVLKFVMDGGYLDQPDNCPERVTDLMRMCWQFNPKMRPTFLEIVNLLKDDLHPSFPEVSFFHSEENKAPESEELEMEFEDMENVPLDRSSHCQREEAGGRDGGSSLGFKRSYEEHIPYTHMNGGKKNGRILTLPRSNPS
Test summary: radiometric filter-binding kinase assay
Condition description: compound 0.01 µM
Reported endpoint: residual activity (%)

>>> reported_measurement("CNc1nc(-c2ccc3c(N)n[nH]c3c2)cc(N2C[C@@H](C(=O)NC3CCCCC3)CC[C@H]2C)n1")
101
>>> reported_measurement("O=C(Nc1nc2cc(C(F)(F)F)cc(NC3CC3)n2n1)c1cccnc1")
107
>>> reported_measurement("CNC(=O)C1[C@H]2O[C@@](C)([C@@H]1N)n1c3ccccc3c3c4c(c5c6ccccc6n2c5c31)C(=O)NC4 (stereo partly specified)")
120
>>> reported_measurement("COc1ccc(N(C(=O)Nc2c(C)cccc2C)c2cc(Nc3ccc(N4CCN(C)CC4)cc3)ncn2)c(OC)c1")
115
>>> reported_measurement("C/C(=C1/C(=O)Nc2ccc(NC(N)=O)cc21)c1ccc[nH]1")
102
>>> reported_measurement("COc1cc(O)c2c(c1)[C@H]1OC1C[C@H](O)[C@H](O)C(=O)/C=C\\C[C@H](C)OC2=O (stereo partly specified)")
112

* * *

Test system: MKNK1 (human)
Test summary: radiometric filter-binding kinase assay
Condition description: compound 10.0 µM
Reported endpoint: residual activity (%)

>>> reported_measurement("C[C@H]1CCCC(=O)CCC/C=C/c2cc(O)cc(O)c2C(=O)O1")
46
>>> reported_measurement("Cc1ccc2c(c1)C(=O)[C@@]1(O)CCN(c3ccccc3)C1=N2")
97
>>> reported_measurement("Cc1ccc(=O)n(-c2ccccc2)c1")
99

(P) NS(=O)(=O)OC[C@@H]1C[C@@H](n2ccc3c(N[C@H]4CCc5ccccc54)ncnc32)C[C@@H]1O
(Q) c1ccc2c(-c3cnn4cc(-c5ccc(N6CCNCC6)cc5)cnc34)ccnc2c1
Task: // compare: P vs Q , metric residual activity, want the smaller Which one? Tell me its label.
Result: Q

* * *

Test system: SRC (human) (UniProt P12931)
Sequence (P12931 whole entry, looked up): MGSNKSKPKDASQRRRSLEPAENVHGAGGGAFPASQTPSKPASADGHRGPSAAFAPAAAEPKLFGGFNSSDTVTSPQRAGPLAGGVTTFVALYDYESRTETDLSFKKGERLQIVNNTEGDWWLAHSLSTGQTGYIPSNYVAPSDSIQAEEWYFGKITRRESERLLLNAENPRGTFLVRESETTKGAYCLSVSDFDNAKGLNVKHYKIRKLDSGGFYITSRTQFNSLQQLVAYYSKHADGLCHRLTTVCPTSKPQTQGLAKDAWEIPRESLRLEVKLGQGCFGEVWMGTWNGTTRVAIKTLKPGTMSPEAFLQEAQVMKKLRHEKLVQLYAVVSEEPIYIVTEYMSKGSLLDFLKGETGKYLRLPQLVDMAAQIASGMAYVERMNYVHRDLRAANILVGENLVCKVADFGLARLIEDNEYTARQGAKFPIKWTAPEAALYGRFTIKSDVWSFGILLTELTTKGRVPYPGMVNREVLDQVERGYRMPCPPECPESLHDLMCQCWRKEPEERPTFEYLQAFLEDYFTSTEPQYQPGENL
Test summary: radiometric filter-binding kinase assay
Condition description: compound 1.0 µM
Reported endpoint: residual activity (%)

Illustrative cases are given below, each with its answer.
>>> reported_measurement("Cc1cc(NC(=O)c2cccc(NC(=O)/C=C/CN(C)C)c2)ccc1Nc1nccc(-c2cccnc2)n1")
50
>>> reported_measurement("O=C(NOC[C@H](O)CO)c1ccc(F)c(F)c1Nc1ccc(I)cc1Cl")
104
>>> reported_measurement("NCC(=O)Nc1ccc(-n2nc(C(F)(F)F)cc2-c2ccc3c(ccc4ccccc43)c2)cc1")
103

(I) Oc1ccc(/C=C/c2cc(O)cc(O)c2)cc1
(II) c1ccc2c(-c3cnn4cc(-c5ccc(N6CCNCC6)cc5)cnc34)ccnc2c1
Task: Could you point out whether the larger residual activity belongs to I or to II ? Which one? Tell me its label.
Result: I
(I: 108%, II: 52%)

* * *

Test system: CSK (human)
Test summary: radiometric filter-binding kinase assay
Condition description: compound 0.1 µM
Reported endpoint: residual activity (%)

>>> reported_measurement("COc1cc(O)c2c(c1)[C@H]1OC1C[C@H](O)[C@H](O)C(=O)/C=C\\C[C@H](C)OC2=O (stereo not given in full)")
105
>>> reported_measurement("NC(=O)Nc1ccc2c(c1)/C(=C/c1cc(-c3cccnc3)c[nH]1)C(=O)N2")
98
>>> reported_measurement("Cn1c(=O)c2c(ncn2C)n(C)c1=O")
100
>>> reported_measurement("COc1ccc(-n2ncc3cnc(Nc4cc(OC)c(OC)c(OCCCN5CCN(C)CC5)c4)nc32)cc1")
65
>>> reported_measurement("COc1ccc2c(c1)c1c3c(c4c5ccccc5n(C)c4c1n2CC(O)CN(C)C)C(=O)NC3=O (stereo not given)")
84

* * *

Test system: PIM3 (human)
Test summary: radiometric filter-binding kinase assay
Condition description: compound 0.1 µM
Reported endpoint: residual activity (%)

>>> reported_measurement("NC(=O)Nc1ccc2c(c1)/C(=C/c1cc(-c3cccnc3)c[nH]1)C(=O)N2")
30
>>> reported_measurement("CN(C)C/C=C/C(=O)Nc1cccc(C(=O)Nc2ccc(Nc3nccc(-c4cccnc4)n3)cc2)c1")
97
>>> reported_measurement("CN1CCN(CCOc2cc(OC3CCOCC3)c3c(Nc4c(Cl)ccc5c4OCO5)ncnc3c2)CC1")
111
>>> reported_measurement("C=CC(=O)N1CCC[C@@H](n2nc(-c3ccc(Oc4ccccc4)cc3)c3c(N)ncnc32)C1")
94
>>> reported_measurement("COc1cc(O)c2c(c1)/C=C/C[C@H](O)[C@H](O)C(=O)/C=C\\C[C@H](C)OC2=O")
126

(a) COc1ccc(N(C(=O)Nc2c(C)cccc2C)c2cc(Nc3ccc(N4CCN(C)CC4)cc3)ncn2)c(OC)c1
(b) Cc1ccc(Sc2cnc(Nc3cccc(Br)n3)s2)cc1C(=O)N1CCN(C(=O)CN)CC1
(c) CNC(=O)C1[C@H]2O[C@@](C)([C@@H]1N)n1c3ccccc3c3c4c(c5c6ccccc6n2c5c31)C(=O)NC4 (some centres undefined)
(d) CCn1c(-c2nonc2N)nc2cncc(CNC3CCNCC3)c21
Task: Put these in order: smallest residual activity first, largest last. Your reply should list the labels following the order given in the request.
Result: c, b, d, a

* * *

Test system: RPS6KA1 KD1 KD2 (human)
Test summary: radiometric filter-binding kinase assay
Condition description: compound 10.0 µM
Reported endpoint: residual activity (%)

Illustrative cases are given below, each with its answer.
>>> reported_measurement("c1ccc2c(-c3cnn4cc(-c5ccc(N6CCNCC6)cc5)cnc34)ccnc2c1")
29
>>> reported_measurement("O=C(Nc1ccccc1-c1cn2c(CN3CCNCC3)csc2n1)c1cnc2ccccc2n1")
34
>>> reported_measurement("CC(C)C[C@H](NC(=O)CNC(=O)c1cc(Cl)ccc1Cl)B1OC(=O)CC(CC(=O)O)(C(=O)O)O1 (stereo not given in full)")
80
>>> reported_measurement("NC(=O)Nc1ccc2c(c1)/C(=C/c1cc(-c3cccnc3)c[nH]1)C(=O)N2")
5
>>> reported_measurement("COc1ccc2c(c1)c1c3c(c4c5ccccc5n(C)c4c1n2CC(O)CN(C)C)C(=O)NC3=O (stereo not given)")
5
>>> reported_measurement("COC(=O)/C=C/C(=O)OC")
91
>>> reported_measurement("CCCCCc1ccc(/C=C/[C@H](O)[C@@H](CO)NC)cc1")
81

(a) FC(F)(F)c1ccc(-c2ccc(Oc3cncc4sc(-c5nn[nH]n5)cc34)cc2)cc1
(b) Cc1cccc(Nc2nn(C)c3ncnc(N)c23)c1
(c) COc1cc2ncn(-c3cc(OCc4ccccc4S(C)(=O)=O)c(C#N)s3)c2cc1OC
Task: Returns the items ordered by residual activity, from maximum to minimum. Your reply should list the labels following the order given in the request.
Result: b, a, c

* * *

Test system: IKBKE (human) (UniProt Q14164)
Sequence (Q14164 whole entry, looked up): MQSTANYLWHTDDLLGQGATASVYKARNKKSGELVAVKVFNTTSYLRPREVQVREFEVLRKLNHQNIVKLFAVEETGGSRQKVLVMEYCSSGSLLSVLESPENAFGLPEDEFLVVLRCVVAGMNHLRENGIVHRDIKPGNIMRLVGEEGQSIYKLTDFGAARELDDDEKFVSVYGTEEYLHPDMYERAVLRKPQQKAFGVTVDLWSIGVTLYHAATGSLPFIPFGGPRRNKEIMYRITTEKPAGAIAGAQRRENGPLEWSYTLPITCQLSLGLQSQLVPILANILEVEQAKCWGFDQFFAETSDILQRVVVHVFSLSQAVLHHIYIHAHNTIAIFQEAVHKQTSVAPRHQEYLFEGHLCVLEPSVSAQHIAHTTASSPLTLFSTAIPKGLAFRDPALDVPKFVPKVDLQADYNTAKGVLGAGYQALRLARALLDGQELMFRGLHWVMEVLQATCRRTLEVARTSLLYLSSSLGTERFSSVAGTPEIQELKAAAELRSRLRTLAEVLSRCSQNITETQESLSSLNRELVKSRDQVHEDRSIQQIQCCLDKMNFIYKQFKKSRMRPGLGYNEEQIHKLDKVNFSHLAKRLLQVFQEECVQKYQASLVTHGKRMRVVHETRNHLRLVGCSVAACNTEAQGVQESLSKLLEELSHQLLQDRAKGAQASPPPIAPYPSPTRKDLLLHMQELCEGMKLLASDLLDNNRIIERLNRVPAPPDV
Test summary: radiometric filter-binding kinase assay
Condition description: compound 10.0 µM
Reported endpoint: residual activity (%)

>>> reported_measurement("O=c1c(O)c(-c2ccc(O)c(O)c2)oc2cc(O)c(O)c(O)c12")
21
>>> reported_measurement("Cc1ccc2c(c1)C(=O)[C@@]1(O)CCN(c3ccccc3)C1=N2")
85
>>> reported_measurement("FC(F)(F)c1ccc(-c2ccc(Oc3cncc4sc(-c5nn[nH]n5)cc34)cc2)cc1")
60
>>> reported_measurement("COC(=O)/C=C/C(=O)OC")
80
>>> reported_measurement("CCc1cncnc1N1CCN(Cc2nc3cc(C(F)(F)F)ccc3[nH]2)CC1")
96

(A) NC(=O)c1ccc(-c2ccc(Oc3cncc4sc(-c5nn[nH]n5)cc34)cc2)cc1
(B) Nc1cccc2c1CN(C1CCC(=O)NC1=O)C2=O (configuration not stated)
(C) NC(=O)Nc1ccc2c(c1)/C(=C/c1cc(-c3cccnc3)c[nH]1)C(=O)N2
Task: Returns the items ordered by residual activity, from maximum to minimum. Your reply should list the labels following the order given in the request.
Result: B, A, C
(B: 99%, A: 69%, C: 11%)

(A) N#Cc1c(C2CCNCC2)cc(-c2c(O)cccc2OCC2CC2)nc1N
(B) O=C(O)c1ccc(-c2c[nH]c3ncc(-c4ccccc4)cc23)cc1C1CCCC1
Task: // compare: A vs B , metric residual activity, want the smaller Which one? Tell me its label.
Result: B

(P) Cc1nc(-c2ccc(OCC(C)C)c(C#N)c2)sc1C(=O)O
(Q) CCOC(=O)c1ccc(N2NC(=O)/C(=C/c3ccc([N+](=O)[O-])o3)C2=O)cc1
(R) Oc1ccc(/C=C/c2cc(O)cc(O)c2)cc1
(S) CCNc1nc(Nc2cc(F)c(C(=O)N3CCOCC3)cc2OC)ncc1C(F)(F)F
(T) COc1cc2ncn(-c3cc(OCc4ccccc4S(C)(=O)=O)c(C#N)s3)c2cc1OC
Task: Returns the items ordered by residual activity, from maximum to minimum. Your reply should list the labels following the order given in the request.
Result: Q, P, R, S, T
(Q: 156%, P: 100%, R: 59%, S: 23%, T: 6%)

(A) Cc1ccc(Sc2cnc(Nc3cccc(Br)n3)s2)cc1C(=O)N1CCN(C(=O)CN)CC1
(B) CNc1nc(-c2ccc3c(N)n[nH]c3c2)cc(N2C[C@@H](C(=O)NC3CCCCC3)CC[C@H]2C)n1
Task: // compare: A vs B , metric residual activity, want the smaller Which one? Tell me its label.
Result: B
(B: 45%, A: 76%)
